These measurements were taken from ChEMBL document CHEMBL4477260.

# System: Human immunodeficiency virus 1
# assay.protocol: Antiviral activity against human HIV-1 3B harboring reverse transcriptase Y188L mutant infected in human MT4 cells assessed as protection from virus-induced cytopathic effect measured 5 days post infection by MTT assay
# Format: functional, organism-based
# experimental.setup: Human immunodeficiency virus 1, 3B, MT4, 120 h
pEC50: −log10 of the molar value.
quantity.kind: pEC50

// sample CC(Sc1nc2cnc(Cl)nc2n1-c1ccc(C2CC2)c2ccccc12)C(=O)Nc1ccc(C(N)=O)cc1Br (stereo unspecified) , its pEC50 was < 4.25

----------
# Tested on: Human immunodeficiency virus 1
# assay.protocol: Antiviral activity against human HIV-1 3B infected in human MT4 cells assessed as protection from virus-induced cytopathic effect measured 5 days post infection by MTT assay
# Format: functional, organism-based
# experimental.setup: Human immunodeficiency virus 1, 3B, MT4, 120 h
Give measured EC50 for each item. Keep answers brief.
Could you give me the number in µM? Just the number is fine.

Noted EC50 for NS(=O)(=O)c1ccc(NC(=O)CSc2nc3cnc(Cl)nc3n2-c2cccc3ccccc23)cc1 , tested on Human immunodeficiency virus 1: 4.46

Noted EC50 for NS(=O)(=O)c1ccc(NC(=O)CSc2nc3cnc(Cl)nc3n2-c2ccc(C3CC3)c3ccccc23)cc1 , tested on Human immunodeficiency virus 1: 18.7

Noted EC50 for Cc1cc(C#N)cc(C)c1Oc1nc(Nc2ccc(C#N)cc2)nc(N)c1Br , tested on Human immunodeficiency virus 1: 0.00335

----------
# assay.protocol: Cytotoxicity against mock-infected human MT4 cells assessed as reduction of cell viability after 5 days by MTT assay
# Assay type: cell-based
quantity.kind: CC50 at 120 h (µM)
Could you give me the number in µM? Just the number is fine.

// sample CC(Sc1nc2cnc(Cl)nc2n1-c1cccc2ccccc12)C(=O)Nc1ccc(C(N)=O)cc1Cl (stereo not given) , its CC50 at 120 h was 23.6

// sample CCOC(=O)c1ccc(NC(=O)CSc2nc3cnc(Cl)nc3n2-c2ccc(C3CC3)c3ccccc23)c(Br)c1 , its CC50 at 120 h was 150

// sample CC(Sc1nc2cnc(Cl)nc2n1-c1ccc(C2CC2)c2ccccc12)C(=O)Nc1ccc(S(N)(=O)=O)cc1Br (stereo not given) , its CC50 at 120 h was 15.9

// sample CC(C)Nc1cccnc1N1CCN(C(=O)c2cc3cc(NS(C)(=O)=O)ccc3[nH]2)CC1 , its CC50 at 120 h was 36.8

// sample COC(=O)c1ccc(NC(=O)CSc2nc3cnc(Cl)nc3n2-c2cccc3ccccc23)c(Br)c1 , its CC50 at 120 h was 156

// sample NC(=O)c1ccc(NC(=O)CSc2nc3cnc(Cl)nc3n2-c2cccc3ccccc23)c(Cl)c1 , its CC50 at 120 h was 22.7

// sample CC(Sc1nc2cnc(Cl)nc2n1-c1cccc2ccccc12)C(=O)Nc1ccc(S(N)(=O)=O)cc1Cl (stereo not given) , its CC50 at 120 h was 21.5

// sample O=C(CSc1nc2cnc(Cl)nc2n1-c1cccc2ccccc12)Nc1ccc(C(F)(F)F)cc1 , its CC50 at 120 h was 14.2

// sample O=C(CSc1nc2cnc(Cl)nc2n1-c1ccc(C2CC2)c2ccccc12)Nc1ccc(C(F)(F)F)cc1 , its CC50 at 120 h was 16.2

// sample NC(=O)c1ccc(NC(=O)CSc2nc3cnc(Cl)nc3n2-c2ccc(C3CC3)c3ccccc23)c(Cl)c1 , its CC50 at 120 h was 6.39

// sample Cc1cc(C#N)cc(C)c1Oc1nc(Nc2ccc(C#N)cc2)nc(N)c1Br , its CC50 at 120 h was 2.46

// sample NC(=O)c1ccc(NC(=O)CSc2nc3cnc(Cl)nc3n2-c2cccc3ccccc23)cc1 , its CC50 at 120 h was 156

// sample CCOC(=O)c1ccc(NC(=O)CSc2nc3cnc(Cl)nc3n2-c2cccc3ccccc23)c(Br)c1 , its CC50 at 120 h was 109

// sample NC(=O)c1ccc(NC(=O)CSc2nc3cnc(Cl)nc3n2-c2cccc3ccccc23)c(Br)c1 , its CC50 at 120 h was 21.6

// sample COC(=O)c1ccc(NC(=O)CSc2nc3cnc(Cl)nc3n2-c2ccc(C3CC3)c3ccccc23)c(Br)c1 , its CC50 at 120 h was 153

// sample CC(Sc1nc2cnc(Cl)nc2n1-c1ccc(C2CC2)c2ccccc12)C(=O)Nc1ccc(C(N)=O)cc1Cl (stereo not given) , its CC50 at 120 h was 25.1

// sample NC(=O)c1ccc(NC(=O)CSc2nc3cnc(Cl)nc3n2-c2ccc(C3CC3)c3ccccc23)c(Br)c1 , its CC50 at 120 h was 11.2

// sample NS(=O)(=O)c1ccc(NC(=O)CSc2nc3cnc(Cl)nc3n2-c2ccc(C3CC3)c3ccccc23)cc1 , its CC50 at 120 h was 113

// sample NS(=O)(=O)c1ccc(NC(=O)CSc2nc3cnc(Cl)nc3n2-c2cccc3ccccc23)cc1 , its CC50 at 120 h was 104

// sample CC(Sc1nc2cnc(Cl)nc2n1-c1ccc(C2CC2)c2ccccc12)C(=O)Nc1ccc(S(N)(=O)=O)cc1Cl (stereo not given) , its CC50 at 120 h was 17.6

// sample CC(Sc1nc2cnc(Cl)nc2n1-c1cccc2ccccc12)C(=O)Nc1ccc(C(N)=O)cc1Br (stereo not given) , its CC50 at 120 h was 21.8

// sample CC(Sc1nc2cnc(Cl)nc2n1-c1cccc2ccccc12)C(=O)Nc1ccc(S(N)(=O)=O)cc1Br (stereo not given) , its CC50 at 120 h was 19

// sample CC(Sc1nc2cnc(Cl)nc2n1-c1ccc(C2CC2)c2ccccc12)C(=O)Nc1ccc(C(N)=O)cc1Br (stereo not given) , its CC50 at 120 h was 55.9
